As shown below, each of these sequences has a reported gcPBM binding intensity (ln) value.
# System: PfAP2-HC AP2 domain (GST-tagged)
# ASSAY NAME: gcPBM binding intensity (ln(normalized median fluorescence intensity)); higher = stronger DNA binding
In all, about 25,000 sequences were measured (“ln(normalized median fluorescence intensity)”: median about 9.7, highest 2% from about 11 on). The sample holds the highest values, similar sequences and a random draw of the others, so the mix is not that of the screen.
REPORTED PROPERTY: gcPBM binding intensity (ln)

> print(dat)
                          construct.sequence                   subject.of.test             reported.property  assay.value
 1  AAAAAAAAAAAACACACACACACATACCCATACATA [CACACA_site5575]  PfAP2-HC AP2 domain (GST-tagged)  gcPBM binding intensity (ln)         11.3
 2  CACAAACACCCAAACACACACACACCGACATACATA [CACACA_site4410]  PfAP2-HC AP2 domain (GST-tagged)  gcPBM binding intensity (ln)         11.1
 3  CATAAAATATAAAACACACACACATATATATATATA [CACACA_site223]  PfAP2-HC AP2 domain (GST-tagged)  gcPBM binding intensity (ln)         10.7
 4  AAAATATATTAAGGCACACACATACATATTTATATA [CACACA_site7707]  PfAP2-HC AP2 domain (GST-tagged)  gcPBM binding intensity (ln)         10.2
 5  TAAACACCCATACATACACACATACATACACCCATA [CACACA_site5125]  PfAP2-HC AP2 domain (GST-tagged)  gcPBM binding intensity (ln)           10
 6  AGAGCATAATAAAACACACACATACATACATATATA [CACACA_site935]  PfAP2-HC AP2 domain (GST-tagged)  gcPBM binding intensity (ln)         10.3
 7  AAAAAAAAAAAAAACACACACACACCCACATATACA [CACACA_site2663]  PfAP2-HC AP2 domain (GST-tagged)  gcPBM binding intensity (ln)         10.6
 8  AAAAAAAAAAAACACACACACACACCCATATACATA [CACACA_site2664]  PfAP2-HC AP2 domain (GST-tagged)  gcPBM binding intensity (ln)           11
 9  TACAAATATGGACACACACACATATATATATATATA [CACACA_site4488]  PfAP2-HC AP2 domain (GST-tagged)  gcPBM binding intensity (ln)         11.3
10  CATATATAAAAAAACACACACATATTTATATTTATA [CACACA_site6682]  PfAP2-HC AP2 domain (GST-tagged)  gcPBM binding intensity (ln)         10.3
11  TGTACAAATATGTACACACACACATATTTATTTATA [CACACA_site6419]  PfAP2-HC AP2 domain (GST-tagged)  gcPBM binding intensity (ln)         10.2
12  ATCATAAATATAGCAACACACGGATTACATAAAATA [CACACA_site2796]  PfAP2-HC AP2 domain (GST-tagged)  gcPBM binding intensity (ln)         9.85
13  ACATTCTATACATACACACCCACACCCAAAAAAAAA [CACACA_site863]  PfAP2-HC AP2 domain (GST-tagged)  gcPBM binding intensity (ln)           10
14  AAGGATCACGCACAAACACACATATTTATATTTATA [CACACA_site6405]  PfAP2-HC AP2 domain (GST-tagged)  gcPBM binding intensity (ln)         9.95
15  ATGCACTCATTGTGCACACGCATATTACGAAAAGAA [CACACA_site2638]  PfAP2-HC AP2 domain (GST-tagged)  gcPBM binding intensity (ln)         9.86
16  AAAAAAAACAAACACACACACAAATATTTATATATT [CACACA_site436]  PfAP2-HC AP2 domain (GST-tagged)  gcPBM binding intensity (ln)         10.5
17  CGAAGGTTTGGCCATGCATGTTATAAGAATATATGT [TGCATGCA_site441]  PfAP2-HC AP2 domain (GST-tagged)  gcPBM binding intensity (ln)         9.51
18  TAATAAAATAATATCACACATATTTATATATATTAT [CACACA_site5814]  PfAP2-HC AP2 domain (GST-tagged)  gcPBM binding intensity (ln)         9.61

----------
# Test system: PfAP2-HC AP2 domain (GST-tagged)
# ASSAY NAME: gcPBM binding intensity (ln(normalized median fluorescence intensity)); higher = stronger DNA binding
Over roughly 25,000 sequences, “ln(normalized median fluorescence intensity)” has its median near 9.7; the highest 2% begin near 11. The full list was thinned out, with the highest values kept by preference.
REPORTED PROPERTY: gcPBM binding intensity (ln)

> print(dat)
                         construct.sequence                   subject.of.test             reported.property  assay.value
1  AGAAAGAAAGAATACACACACACATATATATATATC [CACACA_site3744]  PfAP2-HC AP2 domain (GST-tagged)  gcPBM binding intensity (ln)         11.5
2  TTCTAATATATGCATACACACAAATGTGAATATACA [CACACA_site2142]  PfAP2-HC AP2 domain (GST-tagged)  gcPBM binding intensity (ln)         9.83
3  TAAATATATATATATAGTACAATATAATTATGATAT [XGTACX_site258]  PfAP2-HC AP2 domain (GST-tagged)  gcPBM binding intensity (ln)         9.75
4  ATTATTTAAAAAAAATGTACATAATAAATATGAACG [XGTACX_site4010]  PfAP2-HC AP2 domain (GST-tagged)  gcPBM binding intensity (ln)         9.58
5  TATATATATATAATATGTACATATATATATTCTTAA [XGTACX_site6154]  PfAP2-HC AP2 domain (GST-tagged)  gcPBM binding intensity (ln)         9.49
6  TAAAAATTGAAGCACACACACAAAAGAAATACAATA [CACACA_site1113]  PfAP2-HC AP2 domain (GST-tagged)  gcPBM binding intensity (ln)         10.9
7  TGTATATTTGTTGTTACACACATATATTTTTTTTTT [CACACA_site128]  PfAP2-HC AP2 domain (GST-tagged)  gcPBM binding intensity (ln)         9.86

----------
gcPBM binding intensity (ln) values by entry
# Test system: PfAP2-HC AP2 domain (GST-tagged)
# ASSAY NAME: gcPBM binding intensity (ln(normalized median fluorescence intensity)); higher = stronger DNA binding
The full ranking holds about 25,000 sequences; the median of “ln(normalized median fluorescence intensity)” is about 9.7, and the highest 2% start at about 11. The sample holds the highest values, similar sequences and a random draw of the others, so the mix is not that of the screen.
REPORTED PROPERTY: gcPBM binding intensity (ln)

> print(dat)
                          construct.sequence                   subject.of.test             reported.property  assay.value
 1  TATTAGATATAATATATACACACCAACGAACGAAGA [CACACA_site1134]  PfAP2-HC AP2 domain (GST-tagged)  gcPBM binding intensity (ln)         10.1
 2  TGTATTAATAAAAATACACACATCATATTATATAAA [CACACA_site3534]  PfAP2-HC AP2 domain (GST-tagged)  gcPBM binding intensity (ln)         9.73
 3  TAATAAAACATATATACACACATTATAAATACATAT [CACACA_site5014]  PfAP2-HC AP2 domain (GST-tagged)  gcPBM binding intensity (ln)           10
 4  AAATTGAGACAACAGGTGCATATAAATATACAGTGT [GTGCAC_site9634]  PfAP2-HC AP2 domain (GST-tagged)  gcPBM binding intensity (ln)         9.79
 5  CACAAGAAAGTTCACACACACACATATATATATATA [CACACA_site6009]  PfAP2-HC AP2 domain (GST-tagged)  gcPBM binding intensity (ln)         10.1
 6  ATATAATGACAAGTATAAGTATCACAAAGAAATAAA [CACACA_negctrl_site1403]  PfAP2-HC AP2 domain (GST-tagged)  gcPBM binding intensity (ln)         9.79
 7  CTGCGTTTAATATGCGTGCACCTTGGTTTTATATCT [GTGCAC_site9525]  PfAP2-HC AP2 domain (GST-tagged)  gcPBM binding intensity (ln)         9.83
 8  AAAACAAAAGAATTCACACATATATATATATATATA [CACACA_site4777]  PfAP2-HC AP2 domain (GST-tagged)  gcPBM binding intensity (ln)         10.2
 9  TGGGATAGATCATTTACACACACAAAAAAAAAAAAA [CACACA_site2140]  PfAP2-HC AP2 domain (GST-tagged)  gcPBM binding intensity (ln)         9.89
10  GGATGTATTTATATGTGTATGTGTTTGGAAATATGT [XGTACX_negctrl_site99]  PfAP2-HC AP2 domain (GST-tagged)  gcPBM binding intensity (ln)         9.85
11  TATAAATTAATGACATGTACATAAAAGTATAGATGT [XGTACX_site6534]  PfAP2-HC AP2 domain (GST-tagged)  gcPBM binding intensity (ln)         9.95
12  ACAAAACATATATTCTGTACATATATAATGGTGACT [XGTACX_site6796]  PfAP2-HC AP2 domain (GST-tagged)  gcPBM binding intensity (ln)         9.77
13  TTAAAGCACCCATGCACACACACAAAGGAAAAGAAA [CACACA_site233]  PfAP2-HC AP2 domain (GST-tagged)  gcPBM binding intensity (ln)         10.2
